- SYSTEM: human GR (Homo sapiens)
- Sequence (P04150 whole entry): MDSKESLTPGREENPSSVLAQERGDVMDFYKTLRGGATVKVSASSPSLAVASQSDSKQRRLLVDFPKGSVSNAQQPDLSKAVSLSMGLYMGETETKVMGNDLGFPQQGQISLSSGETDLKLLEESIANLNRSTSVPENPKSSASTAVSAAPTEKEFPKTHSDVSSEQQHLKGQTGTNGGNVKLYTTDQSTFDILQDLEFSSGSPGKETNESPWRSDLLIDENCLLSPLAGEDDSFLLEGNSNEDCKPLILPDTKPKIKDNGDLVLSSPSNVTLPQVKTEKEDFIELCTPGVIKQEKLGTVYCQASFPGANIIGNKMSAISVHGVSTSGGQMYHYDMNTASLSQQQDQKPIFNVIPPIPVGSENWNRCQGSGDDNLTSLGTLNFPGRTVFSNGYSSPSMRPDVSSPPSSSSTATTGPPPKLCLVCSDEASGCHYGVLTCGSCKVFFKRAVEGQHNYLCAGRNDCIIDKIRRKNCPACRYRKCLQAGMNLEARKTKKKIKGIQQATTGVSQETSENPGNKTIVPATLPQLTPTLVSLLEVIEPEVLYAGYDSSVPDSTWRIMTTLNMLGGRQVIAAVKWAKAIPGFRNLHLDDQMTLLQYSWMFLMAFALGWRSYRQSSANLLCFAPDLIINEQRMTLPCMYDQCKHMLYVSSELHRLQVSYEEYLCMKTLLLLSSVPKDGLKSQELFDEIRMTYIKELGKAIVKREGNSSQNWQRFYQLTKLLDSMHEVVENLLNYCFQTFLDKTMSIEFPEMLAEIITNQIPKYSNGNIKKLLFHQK
- PROCEDURE_SUMMARY: Transrepression Assay (GITAR), TNFα-β-lactamase reporter in U937 cells
- Format: cell-based
- Parameters: U937 cells contain an endogenous glucocorticoid receptor (GR); endogenous in cells; host or cells: U937 cells stably transfected with the TNF-alpha promoter/beta-lactamase reporter
- RUN_CONDITIONS: GITAR Emax minus GRAMMER Emax
EXPERIMENTAL_ENDPOINT: GITAR > GRAMM % SEP (%)

COC(=O)c1ccccc1CS(=O)(=O)N(CCc1ccccc1F)C[C@H]1CCC2=Cc3c(cnn3-c3ccc(F)cc3)C[C@@]21C : 30.1
Cc1ccc(S(=O)(=O)N(CCO)C[C@H]2CCC3=Cc4c(cnn4-c4ccc(F)cc4)C[C@@]32C)s1 : 21.1
C[C@]12Cc3cnn(-c4ccc(F)cc4)c3C=C1CC[C@@H]2CN(CC1CC1)S(=O)(=O)c1ccc(F)c(Cl)c1 : 31.4
CCCS(=O)(=O)N(CC(O)C(F)F)C[C@H]1CCC2=Cc3c(cnn3-c3ccc(F)cc3)C[C@@]21C (some centres unmarked) : 32.2
Cc1noc(C)c1S(=O)(=O)NC[C@H]1CCC2=Cc3c(cnn3-c3ccc(F)cc3)C[C@@]21C : 26.7

P = C[C@]12Cc3cnn(-c4ccc(F)cc4)c3C=C1CC[C@@H]2CN(CC#N)S(=O)(=O)c1ccc(Cl)c(C(F)(F)F)c1
Q = C[C@]12Cc3cnn(-c4ccc(F)cc4)c3C=C1CC[C@@H]2CN(CC#N)S(=O)(=O)c1cc(OCC(F)(F)F)ccc1OCC(F)(F)F
Endpoint returns whichever of P and Q has the numerically higher GITAR > GRAMM % SEP. # respond with the chosen item's label
Q
(Q: 31.6%, P: 10.0%)

I = Cc1nn(C)c(Cl)c1S(=O)(=O)N(CC#N)C[C@H]1CCC2=Cc3c(cnn3-c3ccc(F)cc3)C[C@@]21C
II = C[C@]12Cc3cnn(-c4ccc(F)cc4)c3C=C1CC[C@@H]2CN(CC#N)S(=O)(=O)c1ccc(Oc2cccc(Cl)c2C#N)cc1
III = C[C@]12Cc3cnn(-c4ccc(F)cc4)c3C=C1CC[C@@H]2CN(CCc1ccccc1F)S(=O)(=O)Cc1ccc(Cl)cc1Cl
IV = C[C@]12Cc3cnn(-c4ccc(F)cc4)c3C=C1CC[C@@H]2CN(CCO)S(=O)(=O)c1ccccc1Cl
V = C[C@]12Cc3cnn(-c4ccc(F)cc4)c3C=C1CC[C@@H]2CN(CC#N)S(=O)(=O)c1ccc(F)c(Cl)c1
Arrange these 5 compounds in increasing order of GITAR > GRAMM % SEP. Hello, could you send the labels back in the order asked? Thank you.
V, III, I, II, IV

a = C[C@]12Cc3cnn(-c4ccc(F)cc4)c3C=C1CC[C@@H]2CN(CCc1ccccc1F)S(=O)(=O)c1ccccc1C(F)(F)F
b = C[C@]12Cc3cnn(-c4ccc(F)cc4)c3C=C1CC[C@@H]2CN(CC(O)c1ccccn1)S(=O)(=O)CC(F)(F)F (some centres unmarked)
c = C[C@@H](O)CN(C[C@H]1CCC2=Cc3c(cnn3-c3ccc(F)cc3)C[C@@]21C)S(=O)(=O)Cc1ccccc1C(N)=O
d = C[C@]12Cc3cnn(-c4ccc(F)cc4)c3C=C1CC[C@@H]2CN(CCO)S(=O)(=O)c1ccc(Oc2ccccc2)cc1
Arrange these 4 compounds in increasing order of GITAR > GRAMM % SEP. Hello, could you send the labels back in the order asked? Thank you.
b, a, c, d

A = Cc1cc(S(=O)(=O)N(CC#N)C[C@H]2CCC3=Cc4c(cnn4-c4ccc(F)cc4)C[C@@]32C)c(C)cc1Cl
B = C[C@]12Cc3cnn(-c4ccc(F)cc4)c3C=C1CC[C@@H]2CN(CCc1ccccc1F)S(=O)(=O)CCN1C(=O)c2ccccc2C1=O
Looking only at measured GITAR > GRAMM % SEP, which entry is lower, A or B ? # respond with the chosen item's label
B
(B: 17.9%, A: 26.2%)

I = C[C@]12Cc3cnn(-c4ccc(F)cc4)c3C=C1CC[C@@H]2CN(CC1(O)CCCCC1)S(=O)(=O)c1ccccc1F
II = C[C@]12Cc3cnn(-c4ccccc4)c3C=C1CC[C@@H]2CN(CCc1ccccc1O)S(=O)(=O)Cc1cccnc1
III = COc1ccc(CCN(C[C@H]2CCC3=Cc4c(cnn4-c4ccc(F)cc4)C[C@@]32C)S(=O)(=O)CC(F)(F)F)cc1
Arrange these 3 compounds in increasing order of GITAR > GRAMM % SEP. Hello, could you send the labels back in the order asked? Thank you.
III, I, II
(III: 15.1%, I: 21.7%, II: 39.7%)

I = Cc1noc(C)c1S(=O)(=O)N(C)C[C@H]1CCC2=Cc3c(cnn3-c3ccc(F)cc3)C[C@@]21C
II = C[C@]12Cc3cnn(-c4ccc(F)cc4)c3C=C1CC[C@@H]2CN(CC1(OS(=O)(=O)CC(F)(F)F)CC1)S(=O)(=O)CC(F)(F)F
Endpoint returns whichever of I and II has the numerically higher GITAR > GRAMM % SEP. # respond with the chosen item's label
II

P = Cc1noc(C)c1S(=O)(=O)N(CC1CCCO1)C[C@H]1CCC2=Cc3c(cnn3-c3ccc(F)cc3)C[C@@]21C (some centres unmarked)
Q = C[C@@H](O)CN(C[C@H]1CCC2=Cc3c(cnn3-c3ccc(F)cc3)C[C@@]21C)S(=O)(=O)c1ccc(F)c(Cl)c1
Looking only at measured GITAR > GRAMM % SEP, which entry is lower, P or Q ? # respond with the chosen item's label
P
